Recorded IC50, one value per entry.
- experimental-system: Human HDAC11 (Homo sapiens)
- Construct: GST (N); purchased BioMol SE-560
- Sequence (Q96DB2 1-347): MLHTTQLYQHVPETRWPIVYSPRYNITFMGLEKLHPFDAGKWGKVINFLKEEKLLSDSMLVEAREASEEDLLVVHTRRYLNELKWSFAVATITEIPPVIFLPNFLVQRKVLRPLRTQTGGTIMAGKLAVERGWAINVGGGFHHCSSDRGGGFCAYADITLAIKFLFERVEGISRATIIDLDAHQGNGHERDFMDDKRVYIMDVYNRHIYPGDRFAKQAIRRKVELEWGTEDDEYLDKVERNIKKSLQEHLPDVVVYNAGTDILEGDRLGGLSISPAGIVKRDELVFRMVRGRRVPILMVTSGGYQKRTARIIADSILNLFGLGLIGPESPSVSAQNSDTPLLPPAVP
- assay-method-text: In vitro HDAC11 inhibition, fluorogenic peptide assay
- Type: biochemical
- test-settings: read-out: IC50 (nM) of enzyme activity HDAC11

compound: COc1ccc(-c2cc(-c3ccccc3)[nH]c2C(=O)NCCCCCC(=O)NO)cc1 [Compound A, reference compound]
result: 680 nM

Lab note: measured IC50 of O=C(CCCCCNC(=O)c1[nH]c(-c2ccc(O)cc2)cc1-c1ccsc1)NO was 55 nM

Lab note: measured IC50 of O=C(CCCCCNC(=O)c1[nH]c(-c2ccc(O)cc2)cc1-c1ccoc1)NO was 18 nM

###

Recorded IC50, one value per entry.
- Tested on: PC-3
- assay-method-text: Cancer cell growth inhibition (CellTiter-Glo), PC-3
- Assay type: cell-based, Human
- test-settings: Homo sapiens; Prostate Cancer, PC-3, 72 h treatment
- Description: Cell culture-based assays were used to evaluate the ability of compounds of the invention to inhibit cancer cell growth. Cells were obtained from the American Type Culture Collection (ATCC). Cells were cultured at 37° C. with 5% CO2 in the appropriate growth medium (see table below), and harvested respectively during the logarithmic growth period and counted with hemocytometer. The cell viability was examined by trypan blue exclusion. […]
Expressed in µM, but write only the number.

compound-string: O=C(CCCCCNC(=O)c1[nH]c(-c2ccc(O)cc2)cc1-c1ccoc1)NO
units: µM
recorded-number: 25.8
//
compound-string: O=C(CCCCCNC(=O)c1[nH]c(-c2ccccc2)cc1-c1ccc(O)cc1)NO
units: µM
recorded-number: 17.9
//
compound-string: O=C(CCCCCNC(=O)c1[nH]c(-c2ccc(O)cc2)cc1-c1ccsc1)NO
units: µM
recorded-number: 26.8

# context switch: different molecule, same IC50
Lab note: measured IC50 of O=C(CCCCCNC(=O)c1[nH]c(-c2ccc(O)cc2)cc1-c1ccccc1)NO was 26.9

###

- experimental-system: Human HDAC4 (Homo sapiens)
- Construct: Amino acids 627-1085 with N-terminal GST tag, MW=75.2 kDa; GST (N); purchased BioMol, Hamburg, Germany
- Sequence (P56524 627-1084 limits assumed): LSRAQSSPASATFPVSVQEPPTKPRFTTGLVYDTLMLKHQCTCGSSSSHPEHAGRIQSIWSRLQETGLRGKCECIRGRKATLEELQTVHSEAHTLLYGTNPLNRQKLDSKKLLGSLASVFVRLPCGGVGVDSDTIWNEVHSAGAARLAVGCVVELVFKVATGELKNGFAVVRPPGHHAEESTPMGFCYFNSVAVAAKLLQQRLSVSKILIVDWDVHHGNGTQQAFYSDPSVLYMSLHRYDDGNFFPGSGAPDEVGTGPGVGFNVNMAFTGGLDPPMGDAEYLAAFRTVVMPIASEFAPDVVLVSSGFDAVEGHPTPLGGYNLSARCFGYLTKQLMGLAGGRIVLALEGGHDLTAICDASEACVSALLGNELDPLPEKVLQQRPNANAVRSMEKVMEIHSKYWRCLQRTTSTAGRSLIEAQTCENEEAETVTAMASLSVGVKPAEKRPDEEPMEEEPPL
- assay-method-text: In vitro HDAC4 inhibition, fluorogenic peptide assay
- Format: biochemical
- test-settings: read-out: IC50 (nM) of enzyme activity HDAC4
measured-parameter: IC50

Solved entries:
compound: COc1ccc(-c2cc(-c3ccccc3)[nH]c2C(=O)NCCCCCC(=O)NO)cc1 [Compound A, reference compound]
result: 1840 nM
//
compound: O=C(CCCCCNC(=O)c1[nH]c(-c2ccc(O)cc2)cc1-c1ccoc1)NO
result: 143 nM

# context switch: different compound, same IC50
Lab note: measured IC50 of O=C(CCCCCNC(=O)c1[nH]c(-c2ccc(O)cc2)cc1-c1ccsc1)NO was 499 nM
